# System: SK-MEL-5 melanoma
# Test Name: NCI tumour cell line growth inhibition, 48 h
Recorded Metric: TGI (µM)
Report the figure in µM without appending any unit label.

Q: Can you share its TGI? I mean this molecule: C#Cc1cccc(N2C(=O)c3c(c(-c4ccccc4)c(-c4ccc(Cc5ccc(-c6c(-c7ccccc7)c7c(c(-c8ccccc8)c6-c6ccccc6)C(=O)N(c6cccc(C#C)c6)C7=O)cc5)cc4)c(-c4ccccc4)c3-c3ccccc3)C2=O)c1
A: 62

Q: Next molecule: Nc1[nH]nc(Nc2ccc(Cl)cc2)c1P(=O)(c1ccccc1)c1ccccc1
A: 67.7

Q: Next molecule: O=c1c2cc(F)ccc2sc2c(N3CCNCC3)nc3ccc(F)cc3c12
A: 3.11

Q: Next molecule: CCCCCCCCOC(=O)CC[C@@H](C)[C@H]1CC[C@H]2[C@@H]3[C@H](OC(=O)CCN)C[C@@H]4C[C@H](OC(=O)CCN)CC[C@]4(C)[C@H]3C[C@H](OC(=O)CCN)[C@]12C
A: 51.7

Q: Next molecule: CN(C)CCNC(=O)c1ccc(NCCCN(C)CCCNc2ccc(C(=O)NCCN(C)C)c3[nH]c4ccccc4c(=O)c23)c2c(=O)c3ccccc3[nH]c12
A: 1.5

Q: Next molecule: Cc1c2c3ccccc3nc-2n(C)c2ccccc12
A: 2.2

Q: Next molecule: CC(C)c1c(-c2ccccc2)nc2c(C#N)c[nH]n2c1=O
A: 40.4

Q: Next molecule: O=C(N/N=C/c1cc(Cl)cc(Cl)c1[O-])c1ccccc1O.O=C(N/N=C/c1cc(Cl)cc(Cl)c1[O-])c1ccccc1O.[Co+2]
A: 2.53

Q: Next molecule: CC(C)(C)c1cc(C(O)(C(F)(F)F)C(F)(F)F)c2c(c1)C(C(F)(F)F)(C(F)(F)F)OC(C)(C(C)(C)C)N2 (stereo not given)
A: 4.7

Q: Next molecule: CCOC(=O)c1cc2cc3c4c(c2oc1=O)CCCN4CCC3
A: 26.8

Q: Next molecule: COc1cc2c(c(OC)c1OC)-c1ncc3c(OC)c(OC)c(OC)cc3c1C2
A: 30.5

Q: Next molecule: CC(C)(C)OC(=O)NC1CC2(C=C(Br)C(=O)C(Br)=C2)OC1=O (stereo not given)
A: 31.1

====

Kindly supply the reported TGI values for the records listed here.
# Test system: HOP-92 NSCLC
# Test Name: NCI tumour cell line growth inhibition, 48 h

Q: Can you share its TGI? I mean this molecule: CCOC(=O)Nc1nc2ccc(OC)cc2s1
A: > 100 µM

Q: Next molecule: O=C1c2ccccc2C(=O)c2cc(N=Nc3c(O)ccc4ccccc34)ccc21
A: > 100 µM

Q: Next molecule: COc1ccc(NC(=O)CSC2=C(Nc3cccc(Br)c3)C(=O)N(Cc3ccccc3)C2=O)cc1Cl
A: > 100 µM

Q: Next molecule: CCCCCCCCOC(=O)CC[C@@H](C)[C@H]1CC[C@H]2[C@@H]3[C@H](OC(=O)CCN)C[C@@H]4C[C@H](OC(=O)CCN)CC[C@]4(C)[C@H]3C[C@H](OC(=O)CCN)[C@]12C
A: 6.74 µM

Q: Next molecule: CC(=N\N)/C(C)=N/N=C(C)/C(C)=N/N
A: > 100 µM

Q: Next molecule: CCOC(=O)C1=C(O)C2C3CC4C2C(O)=C(C(=O)OCC)C2C1C3C42 (stereo unspecified)
A: > 100 µM

Q: Next molecule: CC(=O)OC12C3C4C1C1C2C3C41OC(C)=O (stereo unspecified)
A: > 100 µM

Q: Next molecule: CC(C)CCC[C@@H](C)[C@H]1CC[C@H]2[C@@H]3CC[C@H]4C[C@@H](CCC=C(c5cc(Cl)c(O)c(C(=O)O)c5)c5cc(Cl)c(O)c(C(=O)O)c5)CC[C@]4(C)[C@H]3CC[C@]12C
A: > 100 µM

Q: Next molecule: COc1ccc2c(=O)cc(-c3ccccc3)[nH]c2c1
A: > 100 µM

Q: Next molecule: CC(=O)OCC1OC(n2cc(F)c(=O)[nH]c2=O)C(NC(=O)OCc2ccccc2)C(OC(C)=O)C1OC(C)=O (stereo unspecified)
A: > 100 µM

Q: Next molecule: COc1cc(C(C)O)c(S(=O)(=O)CC(C)O)nn1 (stereo unspecified)
A: > 100 µM

Q: Next molecule: O=C(Nc1cc(C(F)(F)F)ccc1Cl)c1ccc(NC2=C(Cl)C(=O)N(Cc3ccccc3)C2=O)cc1
A: 56.3 µM

Q: Next molecule: CCOC(=O)c1cc2cc3c4c(c2oc1=O)CCCN4CCC3
A: 58 µM

Q: Next molecule: COC/C=C\COC
A: > 100 µM

Q: Next molecule: Cc1ccccc1NC(=O)c1cc(-c2ccc([N+](=O)[O-])cc2)nc(=S)[nH]1
A: > 100 µM

Q: Next molecule: CC1=NC2=Nc3nc(C)cc[n+]3CN2C=C1
A: > 100 µM

Q: Next molecule: O=C1CC2C(=O)c3ccccc3CC2c2ccccc21 (stereo unspecified)
A: > 100 µM

Q: Next molecule: Nc1nonc1-c1nc2cnccc2n1C1CC1
A: > 25 µM

Q: Next molecule: CC(C)(C)OC(=O)N(CCCCNC(=O)OCc1ccccc1)CCCNC(=O)OCc1ccccc1
A: 99.1 µM

Q: Next molecule: COc1ccc(C2OC(=O)c3ccc4ccccc4c32)c(C)c1 (stereo unspecified)
A: > 89.8 µM

Q: Next molecule: Cc1cc2/c(=C\c3ccc(N(C)C)cc3)c3ccccc3n2[n+]1C
A: 3.52 µM

Just for reference, PubChem BioAssay (NCI) is where these values come from.
